Structures can show the parent of a compound that is named as a salt.
readout_name: melting point

Consider the worked cases shown below.
{"columns": ["compound", "obs_value"],
 "data": [
  ["COC(=O)C1=C(CCN2CCN(C)CC2)N(C)C(CCN2CCN(C)CC2)=C(C(=O)OC)C1c1ccc(C(F)(F)F)cc1 (as salt: hydrochloride) [Example 16]", "195 to 200 °C"],
  ["COC(=O)C1=C(C)N(C)C(CCN2CCc3ccccc3CC2)=C(C(=O)OC)C1c1ccc(C(F)(F)F)cc1.O=C(O)/C=C/C(=O)O (centres unmarked)", "202 to 203 °C"],
  ["COC(=O)C1=C(CCN(C)C)N(C)C(CCN(C)C)=C(C(=O)OC)C1c1cc(F)cc(F)c1 (as salt: hydrochloride) [Example 25, dihydrochloride]", "261 to 265 °C"],
  ["COC(=O)C1=C(C)N(C)C(CCN2CCCC2)=C(C(=O)OC)C1c1ccc(C(F)(F)F)cc1.Cl (centres unmarked)", "218 to 219 °C"],
  ["COC(=O)C1=C(C)N(C)C(C)=C(C(=O)OC)C1c1ccc(OC)cc1 [Example 6]", "163 to 164 °C"],
  ["COC(=O)C1=C(C)N(C)C(C)=C(C(=O)OC)C1c1ccc(C(F)(F)F)cc1 [Example 1]", "159 to 160 °C"]
]}

Need melting point for each of these compounds.
1. COC(=O)C1=C(C)N(C)C(C)=C(C(=O)OC)C1c1ccccc1C(F)(F)F [Example 8]
2. COC(=O)C1=C(C)N(C)C(C)=C(C(=O)OC)C1c1cccc(C(F)(F)F)c1 [Example 7]
3. COC(=O)C1=C(C)N(C)C(C)=C(C(=O)OC)C1c1ccc(Cl)cc1 [Example 4]
4. COC(=O)C1=C(C)N(C)C(C)=C(C(=O)OC(C)(C)C)C1c1ccc(C(F)(F)F)cc1 (centres unmarked) [Example 29]
5. COC(=O)C1=C(C)N(C)C(C)=C(C(=O)OC(C)C)C1c1ccc(C(F)(F)F)cc1 (centres unmarked) [Example 28]
6. COC(=O)C1=C(C)N(C)C(C)=C(C(=O)OC)C1c1ccc(C)cc1 [Example 5]
7. COC(=O)C1=C(C)N(C)C(CN2CCCC2)=C(C(=O)OC)C1c1ccc(C(F)(F)F)cc1.Cl (centres unmarked)
8. CCC1=C(C(=O)OC)C(c2ccc(C(F)(F)F)cc2)C(C(=O)OC)=C(CC)N1C [Example 27]

## Result
1: 168 to 170 °C; 2: 118 to 119 °C; 3: 179 to 180 °C; 4: 128 to 130 °C; 5: 92 to 94 °C; 6: 176 to 178 °C; 7: 182 to 185 °C; 8: 136 to 138 °C
